Entries and their measured kinact/KI follow.
- systemUnderTest: PAD3 (Homo sapiens)
- Construct: made in house
- Sequence (Q9ULW8 whole entry): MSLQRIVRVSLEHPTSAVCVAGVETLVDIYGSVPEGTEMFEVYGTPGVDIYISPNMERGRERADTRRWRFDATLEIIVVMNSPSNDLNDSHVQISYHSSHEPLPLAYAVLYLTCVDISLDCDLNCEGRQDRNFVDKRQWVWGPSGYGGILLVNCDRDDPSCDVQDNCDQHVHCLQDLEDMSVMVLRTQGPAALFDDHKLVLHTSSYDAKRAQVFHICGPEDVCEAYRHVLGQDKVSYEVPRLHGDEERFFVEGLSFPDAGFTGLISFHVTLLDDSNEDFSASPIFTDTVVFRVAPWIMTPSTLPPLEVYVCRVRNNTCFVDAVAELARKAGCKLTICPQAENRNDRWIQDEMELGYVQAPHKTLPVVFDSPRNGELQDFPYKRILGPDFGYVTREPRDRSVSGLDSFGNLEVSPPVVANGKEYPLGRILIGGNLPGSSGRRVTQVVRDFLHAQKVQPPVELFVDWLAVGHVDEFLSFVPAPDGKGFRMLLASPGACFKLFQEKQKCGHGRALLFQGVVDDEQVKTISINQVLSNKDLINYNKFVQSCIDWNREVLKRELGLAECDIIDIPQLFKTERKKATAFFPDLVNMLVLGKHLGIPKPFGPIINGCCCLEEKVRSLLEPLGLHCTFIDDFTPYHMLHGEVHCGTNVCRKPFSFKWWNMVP
- testSummary: Inactivation kinetics, PAD3
- Format: biochemical
- testConditions: a: single kobs determined
Give the value in M⁻¹ s⁻¹ but do not write M⁻¹ s⁻¹ after it.

Previously resolved entries follow.
1. N=C(CF)NCCC[C@H](NC(=O)c1ccc(-c2ccccc2)cc1)c1nc2ccccc2[nH]1: 56.7
2. C#Cc1ccc(-c2ccc(C(=O)N[C@@H](CCCNC(=N)CCl)c3nc4ccccc4[nH]3)cc2)cc1: 6.25
3. COc1cccc2c1nc([C@H](CCCNC(=N)CF)NC(=O)c1ccccc1C(=O)O)n2C: 113
4. CCN1Cc2cccc(C(=O)N[C@@H](CCCNC(=N)CCl)c3nc4ccccc4n3C)c2C1=O: 62.8
5. CCN1Cc2cccc(C(=O)N[C@@H](CCCNC(=N)CF)c3nc4c(OC)cccc4[nH]3)c2C1=O: 153
6. CCn1c([C@H](CCCNC(=N)CF)NC(=O)c2cccc3c2C(=O)NC3)nc2ccccc21: 18.3
7. CCOc1cccc2c1nc([C@H](CCCNC(=N)CF)NC(=O)c1cccc3c1C(=O)NC3)n2C: 20
8. CCn1c([C@H](CCCNC(=N)CCl)NC(=O)c2cccc3c2C(=O)NC3)nc2c(OC)cccc21: 103

Name the recorded kinact/KI of `COc1cccc2c1nc([C@H](CCCNC(=N)CF)NC(=O)c1cccc3c1C(=O)N(C)C3)n2C` , assay system PAD3 (Homo sapiens). 33.5

Name the recorded kinact/KI of `Cn1c([C@H](CCCNC(=N)CF)NC(=O)c2ccccc2C(=O)O)nc2ccccc21` , assay system PAD3 (Homo sapiens). 17.2
